- METHOD DESCRIPTION: Oral bioavailability in Sprague-Dawley rat at 20 mg/kg by LC-MS/MS analysis
- Type: ADME, organism-based
- CONDITIONS: in vivo
OUTCOME MEASURE: bioavailability (%)
Your answer should be a plain number; it is taken to be in %.

Problem: Look at this compound and give its reported bioavailability. N#CCCn1cc(-c2nc(Nc3ccc4c(ccn4S(=O)(=O)C(F)(F)F)c3)ncc2F)cn1
Solution: 12

----------
- ASSAYED SYSTEM: Tyrosine-protein kinase JAK2 (Homo sapiens, UniProt O60674)
- Sequence (O60674 whole entry): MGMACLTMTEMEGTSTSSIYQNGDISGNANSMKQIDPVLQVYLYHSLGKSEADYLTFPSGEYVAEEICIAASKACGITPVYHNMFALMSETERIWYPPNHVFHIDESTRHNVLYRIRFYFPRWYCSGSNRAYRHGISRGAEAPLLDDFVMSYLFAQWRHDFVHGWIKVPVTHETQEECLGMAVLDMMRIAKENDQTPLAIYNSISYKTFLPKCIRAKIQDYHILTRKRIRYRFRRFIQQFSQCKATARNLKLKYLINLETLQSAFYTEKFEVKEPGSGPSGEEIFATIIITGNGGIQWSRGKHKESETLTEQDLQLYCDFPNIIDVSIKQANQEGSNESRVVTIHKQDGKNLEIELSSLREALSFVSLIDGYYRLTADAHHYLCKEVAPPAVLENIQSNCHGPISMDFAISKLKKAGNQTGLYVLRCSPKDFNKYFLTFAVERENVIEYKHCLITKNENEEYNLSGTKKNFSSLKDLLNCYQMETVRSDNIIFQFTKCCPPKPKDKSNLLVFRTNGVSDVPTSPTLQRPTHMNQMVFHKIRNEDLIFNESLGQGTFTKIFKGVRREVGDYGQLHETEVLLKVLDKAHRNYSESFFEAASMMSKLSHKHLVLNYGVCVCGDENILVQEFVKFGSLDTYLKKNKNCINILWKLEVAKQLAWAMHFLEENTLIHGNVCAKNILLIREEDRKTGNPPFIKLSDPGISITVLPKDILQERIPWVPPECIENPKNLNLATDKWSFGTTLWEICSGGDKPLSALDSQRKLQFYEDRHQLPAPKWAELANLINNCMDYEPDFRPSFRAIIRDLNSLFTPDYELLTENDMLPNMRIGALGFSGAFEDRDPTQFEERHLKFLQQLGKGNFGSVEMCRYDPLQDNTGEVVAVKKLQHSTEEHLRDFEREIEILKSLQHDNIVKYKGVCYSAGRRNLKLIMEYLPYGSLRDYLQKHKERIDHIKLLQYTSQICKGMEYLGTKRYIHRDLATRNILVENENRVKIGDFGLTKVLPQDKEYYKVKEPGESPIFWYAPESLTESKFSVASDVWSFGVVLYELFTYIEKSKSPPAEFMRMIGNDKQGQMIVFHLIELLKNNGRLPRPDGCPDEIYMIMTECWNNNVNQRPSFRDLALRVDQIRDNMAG
- METHOD DESCRIPTION: Inhibition of recombinant human JAK2 (808 to end residues) KTFCGTPEYLAPE as substrate measured after 40 mins in presence of [gamm33P]ATP by scintillation counting based radiometry assay
OUTCOME MEASURE: IC50 (nM)
Your answer should be a plain number; it is taken to be in nM.

Cc1cnc(Nc2ccc3c(c2)CCN3S(=O)(=O)C2CC2)nc1-c1cnn(C(C)C)c1 2.38
COc1ccc(S(=O)(=O)N2CCc3cc(Nc4ncc(C)c(-c5cnn(C(C)C)c5)n4)ccc32)cc1 24.1
Cc1cnc(Nc2ccc3c(c2)CCN3C(=O)c2cccc(C(F)(F)F)c2)nc1-c1cnn(C(C)C)c1 65.3
Cc1cnc(Nc2ccc3c(c2)CCN3S(=O)(=O)c2ccc(C(F)(F)F)cc2)nc1-c1cnn(CCC#N)c1 21

Problem: What IC50 appears in the records for this compound with Tyrosine-protein kinase JAK2 (Homo sapiens, UniProt O60674)? N#CCCn1cc(-c2nc(Nc3ccc4c(c3)CCN4C(=O)C3(C#N)CC3)ncc2F)cn1
Solution: 28

Problem: What IC50 appears in the records for this compound with Tyrosine-protein kinase JAK2 (Homo sapiens, UniProt O60674)? Cc1cnc(Nc2ccc3c(c2)CCN3C(=O)CCN2CCOCC2)nc1-c1cnn(C(C)C)c1
Solution: 12

Problem: What IC50 appears in the records for this compound with Tyrosine-protein kinase JAK2 (Homo sapiens, UniProt O60674)? N#CCCn1cc(-c2nc(Nc3ccc4c(c3)CNC4=O)ncc2F)cn1
Solution: 58

----------
- ASSAYED SYSTEM: Tyrosine-protein kinase JAK2 (Homo sapiens, UniProt O60674)
- METHOD DESCRIPTION: Inhibition of recombinant human JAK2 (808 to end residues) KTFCGTPEYLAPE as substrate measured after 40 mins in presence of [gamm33P]ATP by scintillation counting based radiometry assay
OUTCOME MEASURE: log10 of IC50 (log10 of the value in nM)
Please note: log10 values; quantity IC50; unit nM.

Recorded results for 4 compounds are shown here.
CC(=O)N1CCc2cc(Nc3ncc(C)c(-c4cnn(C(C)C)c4)n3)ccc21 0.78
Cc1cnc(Nc2ccc3c(c2)CCN3S(=O)(=O)c2ccc3c(c2)CC(=O)N3C)nc1-c1cnn(C(C)C)c1 1.10
N#CCCn1cc(-c2nc(Nc3ccc4c(ccn4C(=O)C4CC4)c3)ncc2F)cn1 2.48
Cc1cnc(Nc2ccc3c(c2)CCN3C(=O)C2CC2)nc1-c1cnn(C(C)C)c1 0.59

Okay, next one:
Problem: Look at this compound and give its reported log10 of IC50. Cc1cnc(Nc2ccc3c(c2)CCN3C(=O)[C@@H](O)CO)nc1-c1cnn(C(C)C)c1
Solution: 1.33
